Entry source: paper PMC10466331

- SUBJECT_OF_TEST: human recombinant lysosomal α-glucosidase GAA (Myozyme) (Homo sapiens)
- Construct: purchased Genzyme
- PROTOCOL_DETAILS: fluorogenic substrate (4MU-α-D-glucopyranoside) assay on rhGAA
- Format: biochemical
- CONDITION_NOTES: Table S2; 4-MU alpha glucoside substrate; listed as 293; read-out: IC50 on rhGAA
ENDPOINT_LABEL: IC50 (nM)
Write the number in nM without appending the unit.

IN: Look up IC50: "CCCCCCN1C[C@H](O)[C@@H](O)[C@H](O)[C@H]1CO"
OUT: 1300

---

- SUBJECT_OF_TEST: human recombinant lysosomal α-glucosidase GAA (Myozyme) (Homo sapiens, UniProt P10253)
- Construct: purchased Genzyme
- PROTOCOL_DETAILS: fluorogenic substrate (4MU-α-D-glucopyranoside) assay on rhGAA
- Format: biochemical
- CONDITION_NOTES: Table S2; 4-MU alpha glucoside substrate; read-out: IC50 on rhGAA
ENDPOINT_LABEL: IC50 (nM)
Field format: number, assumed nM, no unit text.

Please review the entries below; each comes with its answer.
COMPOUND	IC50, nM
Cc1ccccc1-c1ccc(COCCCCCN2C[C@H](O)[C@@H](O)[C@H](O)[C@H]2CO)cc1 [#ID 326]	12
OC[C@@H]1[C@@H](O)[C@H](O)[C@@H](O)CN1CCCCCOCc1ccc2ccccc2c1 [#ID 58]	250

IN: Please give the measured IC50 for this compound: OC[C@@H]1[C@@H](O)[C@H](O)[C@@H](O)CN1CCCCCOCc1ccc(-c2ccccc2F)cc1 [#ID 330]
OUT: 98

IN: # input compound: CCCCCCCCOCCCCCN1C[C@H](O)[C@@H](O)[C@H](O)[C@H]1CO [#ID 25] ; wanted: its IC50
OUT: 100
